Target: Focal adhesion kinase 1 (Homo sapiens) (UniProt Q05397)
Sequence (Q05397 whole entry, looked up): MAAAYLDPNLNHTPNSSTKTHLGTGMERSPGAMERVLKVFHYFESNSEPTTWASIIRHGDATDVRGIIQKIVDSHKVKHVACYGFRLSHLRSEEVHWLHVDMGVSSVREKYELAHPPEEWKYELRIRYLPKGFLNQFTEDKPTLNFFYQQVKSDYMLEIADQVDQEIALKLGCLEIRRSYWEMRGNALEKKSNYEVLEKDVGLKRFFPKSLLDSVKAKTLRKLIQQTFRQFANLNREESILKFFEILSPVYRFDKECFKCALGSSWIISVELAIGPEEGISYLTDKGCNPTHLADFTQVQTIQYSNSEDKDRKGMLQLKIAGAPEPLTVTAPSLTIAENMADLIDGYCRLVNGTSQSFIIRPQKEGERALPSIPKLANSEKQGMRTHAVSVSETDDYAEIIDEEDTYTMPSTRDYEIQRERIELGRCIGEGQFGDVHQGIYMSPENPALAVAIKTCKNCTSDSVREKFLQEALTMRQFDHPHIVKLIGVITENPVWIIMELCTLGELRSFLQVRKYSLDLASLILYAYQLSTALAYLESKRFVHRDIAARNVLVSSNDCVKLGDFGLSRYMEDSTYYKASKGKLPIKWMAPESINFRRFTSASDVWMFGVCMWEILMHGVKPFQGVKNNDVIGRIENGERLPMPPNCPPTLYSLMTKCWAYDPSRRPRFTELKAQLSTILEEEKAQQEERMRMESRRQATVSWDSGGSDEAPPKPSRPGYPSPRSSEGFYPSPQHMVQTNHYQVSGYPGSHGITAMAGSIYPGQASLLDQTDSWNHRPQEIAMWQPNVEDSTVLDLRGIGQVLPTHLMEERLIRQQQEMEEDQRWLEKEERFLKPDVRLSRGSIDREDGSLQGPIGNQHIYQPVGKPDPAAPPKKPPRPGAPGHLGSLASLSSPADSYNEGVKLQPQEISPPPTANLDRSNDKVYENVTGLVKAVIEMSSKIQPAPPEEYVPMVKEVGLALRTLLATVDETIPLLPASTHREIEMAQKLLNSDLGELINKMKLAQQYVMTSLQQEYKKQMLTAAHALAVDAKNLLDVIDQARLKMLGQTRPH
Assay: PTK2 protein binding on printed compound slides – biochemical, small-molecule microarray, 635/667 nm fluorescence, BSA, DTT, primary screen (AID 1130);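 also: composite of spot emission at 667 nm and signal to noise over triplicate slides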
Conditions: 635 nm fluorescence, higher = more signal

>  <compound>
O=C1[C@H]2C=C(Br)[C@H](C[C@@H]2OCCOCCO)[C@@]12CO2

>  <composite z-score>
-0.0415

$$$$
>  <compound>
COC(=O)[C@@]1(Cc2ccccc2)[C@H]2c3cc(C(=O)N(C)C)n(Cc4ccccc4)c3C[C@H]2CN1C(=O)c1ccccc1

>  <composite z-score>
0.614

$$$$
>  <compound>
[N-]=[N+]=NCc1ccccc1C[C@]1(C(N)=O)N=C(c2ccc(OCCCO)cc2)O[C@H]1c1ccccc1N=[N+]=[N-]

>  <composite z-score>
0.394

$$$$
>  <compound>
CC(C)(C)OC(=O)CC[C@]1(C(=O)NCC(O)CO)N=C(c2ccc(OCCCO)cc2)O[C@H]1c1ccccc1CN=[N+]=[N-] (some centres undefined)

>  <composite z-score>
-0.0371

$$$$

Where do the numbers come from? From PubChem BioAssay.
